# Tested Target: STK3 (Homo sapiens (Human))
# Sequence (Q13188 whole entry): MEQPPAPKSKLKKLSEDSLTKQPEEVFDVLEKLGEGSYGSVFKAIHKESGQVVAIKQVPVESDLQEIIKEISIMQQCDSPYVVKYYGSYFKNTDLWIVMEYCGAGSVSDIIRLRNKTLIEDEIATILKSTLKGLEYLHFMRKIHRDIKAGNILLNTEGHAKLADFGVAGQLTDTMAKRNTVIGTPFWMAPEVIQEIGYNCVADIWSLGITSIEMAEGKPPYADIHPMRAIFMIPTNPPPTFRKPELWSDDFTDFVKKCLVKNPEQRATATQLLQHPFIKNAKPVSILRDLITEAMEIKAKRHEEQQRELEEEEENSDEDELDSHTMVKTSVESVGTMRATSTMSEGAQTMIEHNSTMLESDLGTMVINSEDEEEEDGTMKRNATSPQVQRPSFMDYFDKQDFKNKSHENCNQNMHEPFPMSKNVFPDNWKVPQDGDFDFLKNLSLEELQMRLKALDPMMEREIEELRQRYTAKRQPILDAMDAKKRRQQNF
# Method Notes: ADP-Glo kinase assay, STK3
# Format: biochemical
# Conditions: ADP-Glo, 50 μM ATP; read-out: STK3 IC50
Value Kind: IC50

// solved cases for IC50 follow
1) Cc1cnccc1-c1c[nH]c2ncnc(N3CCOCC3)c12    > 5 µM
2) CN(C)c1ncnc2[nH]cc(-c3cccc(Cl)c3)c12    < 1 µM
3) OCCCNc1ncnc2[nH]cc(-c3cccc(Cl)c3)c12    < 1 µM
4) CN(C)C1CCN(c2ncnc3[nH]cc(-c4cccc(Cl)c4)c23)CC1    < 1 µM
5) CC(=O)NCC(C)CNc1ncnc2[nH]cc(-c3ccccc3)c12 (centres unmarked)    1 to 5 µM

Exam item: # IC50 lookup, item CN1CCN(c2ncnc3[nH]cc(-c4cccc(Cl)c4)c23)CC1
Marked response: 1 to 5 µM

Exam item: Fill blank: measured IC50 of the molecule c1nc(N2CCOCC2)c2c(-c3cnoc3)c[nH]c2n1 is ____.
Marked response: 1 to 5 µM

Exam item: State the recorded IC50 for this entry: CC(=O)NCC(C)CNc1ncnc2[nH]cc(-c3cccc(Cl)c3)c12 (centres unmarked)
Marked response: < 1 µM

Exam item: Entry CC1(O)CCN(c2ncnc3[nH]cc(-c4cccc(Cl)c4)c23)CC1 has what IC50?
Marked response: < 1 µM

Exam item: Looking for the measured IC50 of CCN1CCN(c2ncnc3[nH]cc(-c4cccc(Cl)c4)c23)CC1 , can you help?
Marked response: > 5 µM

Exam item: Give its IC50 value. Item: c1ncc(-c2c[nH]c3ncnc(N4CCOCC4)c23)cn1
Marked response: > 5 µM

Exam item: So what does the record say about IC50 for CC1(N)CCN(c2ncnc3[nH]cc(-c4cccc(Cl)c4)c23)CC1 ?
Marked response: < 1 µM

Exam item: Quick one: IC50 of Fc1ccc(-c2c[nH]c3ncnc(N4CCOCC4)c23)cc1 ?
Marked response: < 1 µM

====

# Method Notes: Caco-2 permeability
# Format: in vitro ADME
# Conditions: human; Caco-2, Papp (B→A/A→B)
Measured efflux ratio, listed per entry for reference.
Reply: number alone, nothing else.

1. Clc1cccc(-c2c[nH]c3nccc(N4CCOCC4)c23)c1    1.6

Exam item: Given the entry OC1CCN(c2ncnc3[nH]cc(-c4cccc(Cl)c4)c23)CC1 , report its measured efflux ratio.
Marked response: 1.3

====

# Tested Target: STK4 (Homo sapiens (Human))
# Sequence (Q13043 whole entry): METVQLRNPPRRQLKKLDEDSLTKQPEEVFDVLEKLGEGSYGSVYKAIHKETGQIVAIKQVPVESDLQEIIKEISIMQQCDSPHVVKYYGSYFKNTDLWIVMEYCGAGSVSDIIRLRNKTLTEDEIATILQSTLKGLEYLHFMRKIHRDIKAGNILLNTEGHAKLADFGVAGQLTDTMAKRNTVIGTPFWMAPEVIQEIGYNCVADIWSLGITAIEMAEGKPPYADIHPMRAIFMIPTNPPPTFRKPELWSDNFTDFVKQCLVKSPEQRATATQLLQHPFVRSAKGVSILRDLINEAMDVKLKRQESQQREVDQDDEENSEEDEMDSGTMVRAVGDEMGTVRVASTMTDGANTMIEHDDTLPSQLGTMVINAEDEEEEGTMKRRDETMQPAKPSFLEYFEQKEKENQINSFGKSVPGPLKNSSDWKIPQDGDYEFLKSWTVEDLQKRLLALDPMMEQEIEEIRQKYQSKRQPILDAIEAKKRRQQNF
# Method Notes: ADP-Glo kinase assay, STK4
# Type: biochemical
# Conditions: ADP-Glo, 50 μM ATP; read-out: STK4 IC50
Below is a list of entries, each paired with its recorded IC50 value.

Exam item: Reported IC50 for STK4 (Homo sapiens (Human)), given Clc1cccc(-c2c[nH]c3ncnc(N4CCOCC4)c23)c1 ?
Marked response: < 1 µM

Exam item: Look up IC50 with STK4 (Homo sapiens (Human)) for this compound: Cc1noc(C)c1-c1c[nH]c2ncnc(N3CCOCC3)c12
Marked response: > 5 µM

Exam item: Form entry - test system: STK4 (Homo sapiens (Human)); read-out: IC50; compound: CC(CO)CN(C)c1ncnc2[nH]cc(-c3cccc(Cl)c3)c12 (stereo not shown)
Marked response: < 1 µM

Exam item: Record CN1CCN(c2ncnc3[nH]cc(-c4cccc(Cl)c4)c23)CC1 : what is its IC50 with STK4 (Homo sapiens (Human))?
Marked response: 1 to 5 µM

Exam item: Please state recorded IC50 (tested on STK4 (Homo sapiens (Human))) of Clc1ccc(-c2c[nH]c3ncnc(N4CCOCC4)c23)cc1
Marked response: 1 to 5 µM

Exam item: Request: IC50, test system STK4 (Homo sapiens (Human)), entry Clc1cccc(-c2c[nH]c3ncnc(N4CCCC4)c23)c1
Marked response: < 1 µM

Exam item: Field: IC50 (STK4 (Homo sapiens (Human))). Entry: CN(CCO)c1ncnc2[nH]cc(-c3cccc(Cl)c3)c12
Marked response: < 1 µM

Exam item: Return IC50 measured with STK4 (Homo sapiens (Human)) given this compound: Clc1cccc(-c2c[nH]c3ncnc(N4CCC(Cc5ccccc5)CC4)c23)c1
Marked response: > 5 µM

Exam item: Fill in the recorded IC50 for this compound, with STK4 (Homo sapiens (Human)) as test system: CN(C)C1CCN(c2ncnc3[nH]cc(-c4cccc(Cl)c4)c23)CC1
Marked response: < 1 µM

Exam item: State its IC50 on STK4 (Homo sapiens (Human)): COc1ccc(-c2c[nH]c3ncnc(N4CCOCC4)c23)cc1
Marked response: < 1 µM

Exam item: What value of IC50 on STK4 (Homo sapiens (Human)) does COc1ccccc1CNc1ncnc2[nH]cc(-c3cccc(Cl)c3)c12 have?
Marked response: 1 to 5 µM

Exam item: STK4 (Homo sapiens (Human)) / IC50 / FC(F)(F)CNc1ncnc2[nH]cc(-c3cccc(Cl)c3)c12 : value?
Marked response: < 1 µM

Exam item: What is its IC50 for STK4 (Homo sapiens (Human))? Entry: FC(F)(F)Oc1cccc(-c2c[nH]c3ncnc(N4CCOCC4)c23)c1
Marked response: 1 to 5 µM
